Tested on: SF-539 CNS
Procedure Text: NCI tumour cell line growth inhibition, 48 h
Output y for TGI not less than 20 µM; output n otherwise.

Some entries whose results are on file:
CC(/C=C/C(O)=C1/C(=O)CNC1=O)=C\[C@@H](C)[C@H]1O[C@@]2(C)O[C@H](C(=O)[C@@H]3O[C@@]32C)[C@@H]1C; y
CCCN(CCC)c1ccc(C=O)c(Cl)c1; y
Nc1nc2ccc(Sc3ccc4nc(N)[nH]c(=O)c4c3)cc2c(=O)[nH]1; y

Now for a further compound.
Query block: Hello, I need to know if O=c1[nH]ncc2[nH]c3c4ccccc4ccc3c12 has measured TGI not below 20 µM. Thanks!
Result block: y

----------
Tested on: OVCAR-3 ovarian
Procedure Text: NCI tumour cell line growth inhibition, 48 h
Assay Readout: GI50

// worked examples, GI50 included
Nc1c(C(=O)c2cccc(C#CCN3CCCCC3)c2)cnn1-c1ccc(F)cc1; > 25000 nM
CC(=O)c1ccc2c(c1)N(CCCN1CCN(CCO)CC1)c1ccccc1S2; 2850 nM

Query block: Would you mind telling me what GI50 value was observed for O=C(CC1(O)C(=O)Nc2ccc(F)cc21)c1ccc(C(=O)NCC2CCC3(CC2)OOC2(CCCCC2)OO3)cc1 (stereo not given) ?
Result block: 1850 nM

Query block: Item NC(=O)c1cccnc1 has what recorded GI50?
Result block: > 100000 nM

Query block: Bench note: what GI50 did COc1ccc(C2=NC(=O)NC2c2ccc(OC)cc2)cc1 (stereo not given) show?
Result block: 10800 nM

Query block: Dear colleague, I am looking for the recorded GI50 of the following compound: C/C(=C(/c1ccccc1)c1ccc(OCC(O)CNCCN2CCOCC2)cc1)c1ccccc1 (stereo not given)
Result block: 2430 nM

Query block: Form field: reported GI50 of ClCc1cccc(Cn2cnc3c(Cl)nc(Cl)nc32)c1
Result block: 1590 nM

Query block: For COc1ccc(-c2cnnn2-c2nonc2-n2cccc2)cc1OC , what is its reported GI50?
Result block: 3970 nM

Query block: # input compound: CCOc1cc(/C=C/C(=O)C(C(=O)/C=C/c2ccc(OC(=O)CNc3nc4ccccc4[nH]3)c(OCC)c2)C(=O)CNc2nc3ccccc3[nH]2)ccc1OC(=O)CNc1nc2ccccc2[nH]1 ; wanted: its GI50
Result block: 2810 nM

Query block: So what's the measured GI50 for this one? C=C1C(=O)O[C@H]2[C@H]1CC/C(Cn1cc(-c3ccc(N)cc3)nn1)=C\CC[C@@]1(C)O[C@@H]21
Result block: 1620 nM

Query block: Fill in: GI50 of CC(C)(C)NCC(O)COc1c(Br)c(Br)c(Br)c2c1OC(C)(C)C2 (stereo not given) is ___
Result block: 1540 nM

Query block: Which GI50 is listed for COc1ccc(Nc2nc(Nc3cc(C)[nH]n3)c3cc(OC)c(OC)cc3n2)cc1 ?
Result block: 1010 nM

Query block: What value of GI50 has been reported for the following compound? COc1ccc2c(c1)C(=O)/C(=C/c1cccc(OCC(=O)Nc3nc(C)c(C)s3)c1)O2
Result block: 17.9 nM

Query block: # query: GI50 of entry COc1cc([C@@H]2c3cc4c(cc3[C@H](OC(C)=O)[C@H]3COC(=O)[C@@H]23)OCO4)cc(OC)c1OC
Result block: 317 nM

Query block: Reported GI50, compound COc1ccc(-c2c(C#N)c(N)nc(N3CCOCC3)c2C#N)cc1 : ____
Result block: 12900 nM
